# credit: ChEMBL document CHEMBL1201862

- Test system: TK-10
- experiment.summary: NCI tumour cell line growth inhibition, 48 h
Activity calls are given as the source filed them. Cut-off read from the data, not from the text of the source: active = GI50 up to about 1.1 µM and inactive = higher.
GI50: recorded values

Some solved cases for reference:
COc1ccc(/C=C/C(=O)C(C)(C)CN2CCCCC2)cc1: 20.8 µM (inactive)
COc1cc(/C=C2/C(=O)N(C(=O)OCC(C)C)C(Cc3cc(OC)c(OC)c(C)c3OC)C(=O)N2Cc2ccccc2)c(OC)c(C)c1OC (stereo not given): > 100 µM (inactive)
C=C(C)C1CC2=C(O1)C(=O)c1ccccc1C2=O (stereo not drawn) [DEHYDROISO-ALPHA-LAPACHONE]: 23 µM (inactive)
NC(=O)C(=O)C1C(=O)N(c2ccccc2)N=C1N (stereo not given): > 100 µM (inactive)
Cc1nc(O)c(Cc2ccccc2O)c(-c2ccccc2)n1: > 100 µM (inactive)

Notebook: O=C1N/C(=N/N=C\C(O)C(O)C(O)CO)N/C1=C/c1ccccc1 (stereo not given) , GI50 read as > 100 µM (inactive)

Notebook: CC1=CCC[C@@]2(C)C(CC[C@@H]2C(C)/C=C/C(C)C)c2ccc(cc2C(=O)O)C[C@@H](O)CC1 (stereo not given in full) , GI50 read as 12.5 µM (inactive)

Notebook: "N#C/C(=C1\SC(C(N)=O)=C(N)N1c1ccccc1)c1nc2ccccc2[nH]1" , GI50 read as 87.9 µM (inactive)

Notebook: "CC(=O)OCCOCNC(=S)N/N=C/c1cc(Br)cs1" , GI50 read as > 100 µM (inactive)

Notebook: "COc1ccc2c(c1)SC1=Nc3sc4cc(OC)ccc4[n+]3CN12" , GI50 read as 51.4 µM (inactive)

* * *

- Tested on: MOLT-4
- experiment.summary: NCI tumour cell line growth inhibition, 48 h
The source made the active and inactive calls. No stated cut-off is given here; in the data, active = GI50 up to about 1.1 µM and inactive = higher.
Response enum: true (1) (active), false (0) (inactive)

Below, 5 molecules whose answers are already recorded.
C#CCCCC(=O)N(C(=O)C[S+]([O-])CC)c1ccccc1 (configuration not stated): false (0)
COc1ccc2c(c1)C1=NCCN(CCO)c3ccc([N+](=O)[O-])c(c31)N2: true (1)
CC1OC(OC2C(CO)OC(O[C@H]3CC[C@@]4(C)C(=CC[C@H]5[C@@H]6C[C@@H]7O[C@](O)(CC[C@H](CO)COC8OC(CO)C(O)C(O)C8O)[C@@H](C)[C@@H]7[C@@]6(C)CC[C@@H]54)C3)C(OC3OC(C)C(O)C(O)C3O)C2O)C(O)C(O)C1O (some centres not stated): false (0)
CC(=O)NNc1nc(C)c(C(=O)NNC(=O)C(=O)Nc2ccc(Cl)c([N+](=O)[O-])c2)s1: false (0)
CC1CC[C@@]2(OC1)OC1C[C@H]3[C@@H]4CC=C5CC(OC6OC(CO)C(OC7OC(CO)C(O)C(OC8OCC(O)C(O)C8O)C7OC7OC(CO)C(O)C(O)C7O)C(O)C6O)CCC5(C)[C@H]4CCC3(C)C1[C@@H]2C (some centres not stated): false (0)

Next up:
Ask: Which outcome was entered for the molecule CC(C)(C)OC(=O)NC(CCCCNC(=O)OCc1ccccc1)C(=O)NCCNc1ccc(NCCNC(=O)C(CCCCNC(=O)OCc2ccccc2)NC(=O)OC(C)(C)C)c2c1C(=O)c1ccccc1C2=O (configuration not stated) in this test?
Result: false (0)

* * *

GI50: recorded values
- Test system: HCT-15
- experiment.summary: NCI tumour cell line growth inhibition, 48 h

Some solved cases for reference:
CC(=O)NNc1nc(C)c(C(/C=C/c2ccc(Cl)cc2)=N/NC(=O)C[N+](C)(C)C)s1: > 100 µM
C=C(C)C1CC2=C(O1)C(=O)c1ccccc1C2=O (stereo not drawn) [DEHYDROISO-ALPHA-LAPACHONE]: 17.9 µM
Cc1ccc(S(=O)(=O)N/N=C(\C(=O)Nc2cccc([N+](=O)[O-])c2)c2nc3ccc([N+](=O)[O-])cc3nc2O)cc1: 16.3 µM

Notebook: COC(=O)CCC(=O)c1ccc2c(c1)CC1(C2)Cc2ccc3c(c2C1)CCCC3=O (centres undefined) , GI50 read as 8.15 µM

* * *

- Test system: M14
- experiment.summary: NCI tumour cell line growth inhibition, 48 h
The source made the active and inactive calls. Rule as the data show it: active = GI50 up to about 1.1 µM and inactive = higher.
GI50: recorded values

Some solved cases for reference:
CSC(=S)N/N=C/c1nccc2ccccc12: 1.36 µM (inactive)
CC(=O)ON(C(C)=O)c1ccc(-c2nc3ccccc3s2)cc1: 26.4 µM (inactive)
Oc1ccc(-c2nn3c(CCCCCCCCc4nnc5sc(-c6ccc(O)cc6)nn45)nnc3s2)cc1: > 100 µM (inactive)
COc1cc2oc(=O)cc(C)c2cc1OC: > 100 µM (inactive)
Cn1c2ccccc2c2[nH]cc3nc4ccccc4c-3c21: 17.9 µM (inactive)

Notebook: Cc1[nH]c2ccccc2c1C1Cc2ccccc2N1C(=O)/C(Cl)=C/c1ccccc1 (stereo not drawn) , GI50 read as > 100 µM (inactive)

Notebook: O=[N+]([O-])c1nccn1CC(O)c1ccccc1 (stereo not drawn) , GI50 read as > 100 µM (inactive)

Notebook: COc1cccc(C(NC2=NCCC=N2)c2cc3c(cc2O)OCO3)c1O (stereo not drawn) , GI50 read as 27.4 µM (inactive)

Notebook: COC1(OC)N=C(N)C2(C#N)C(C)=C3NCN(C)N=C3C12C#N (stereo not drawn) , GI50 read as > 100 µM (inactive)

Notebook: "C1CCOC2(CCC3(CC2)OCCCCO3)OC1" , GI50 read as > 100 µM (inactive)

Notebook: "O=C(Nc1ccccc1)Nn1c(-c2cccs2)nc2ccc(I)cc2c1=O" , GI50 read as 35.9 µM (inactive)

Notebook: CC1C=CC(C)C2(O)C(=O)NC(O)C12 (stereo not drawn) , GI50 read as > 100 µM (inactive)

Notebook: "COc1cc2c(cc1OC)C(=O)/C(=C/c1cc(Cl)cc(Cl)c1)C2" , GI50 read as 4.18 µM (inactive)

* * *

- Test system: SNB-75
- experiment.summary: NCI tumour cell line growth inhibition, 48 h
The source made the active and inactive calls. Cut-off read from the data, not from the text of the source: active = GI50 up to about 1.1 µM and inactive = higher.
GI50: recorded values

COC(c1ccc(C(C)(C)C)cc1)(c1ccc(C(C)(C)C)cc1)c1cc(C(O)(c2cc(C(OC)(c3ccc(C(C)(C)C)cc3)c3ccc(C(C)(C)C)cc3)c(C)cc2C)c2cc(C(OC)(c3ccc(C(C)(C)C)cc3)c3ccc(C(C)(C)C)cc3)c(C)cc2C)c(C)cc1C: 28.3 µM (inactive)
COC(=O)C1=C(C(=O)OC)C2C=CC1C1C(Cl)=C(Cl)C21 (centres undefined): > 100 µM (inactive)
C=C(C)C1CC2=C(O1)C(=O)c1ccccc1C2=O (stereo not drawn) [DEHYDROISO-ALPHA-LAPACHONE]: 17.6 µM (inactive)
C=C(C)C(=O)O[C@H]1CC2(CO)O[C@@H]2CC/C(COC(C)=O)=C/C2OC(=O)C(=C)[C@@H]21 (some centres undefined): 59.7 µM (inactive)
CC(=O)NNc1nc(C)c(C(/C=C/c2ccc(Cl)cc2)=N/NC(=O)C[N+](C)(C)C)s1: > 100 µM (inactive)

Notebook: COc1cc(C(C)c2cc3c(cc2OCCNC(=O)COc2cc4c(cc2C(C)c2cc(OC)c(OC)c(OC)c2)OCO4)OCO3)cc(OC)c1OC (centres undefined) , GI50 read as 3.09 µM (inactive)

Notebook: "CC(=O)N(C)c1ccc2c(ccc[n+]2[O-])c1[N+](=O)[O-]" , GI50 read as > 100 µM (inactive)

Notebook: COC(=O)NC(Cc1ccccc1)NC(=O)OC(C)(C)C (centres undefined) , GI50 read as > 100 µM (inactive)

Notebook: "Cc1cc(=O)oc2cc(O)c(CN(C)CC(=O)O)cc12" , GI50 read as > 100 µM (inactive)

Notebook: "Cc1nc(O)c(Cc2ccccc2O)c(-c2ccccc2)n1" , GI50 read as 22.4 µM (inactive)

Notebook: "COc1c2ccccc2c(OC)c2nc(C)ccc12" , GI50 read as > 100 µM (inactive)

Notebook: "Cc1ccc(C)c(NC(=O)C(=O)CC(=O)c2cccc3ccccc23)c1" , GI50 read as > 100 µM (inactive)

* * *

- Test system: MDA-N
- experiment.summary: NCI tumour cell line growth inhibition, 48 h
Activity calls are given as the source filed them. Cut-off read from the data, not from the text of the source: active = GI50 up to about 1.1 µM and inactive = higher.
Response enum: True for active, False for inactive

Below, 3 compounds whose answers are already recorded.
CCN(CC)CCCNc1ccc2ncn3c4ccc(O)cc4c(=O)c1c23: False
Cn1nnc2c(C(N)=O)ncn2c1=O [TEMOZOLOMIDE]: False
C[C@H](N)C(=O)N[C@@H]1[C@H]2C(=C(O)C[C@@H](O)[C@@H]2O)C(=O)O[C@]1(C)C(Cl)Cl [BACTOBOLIN]: True

Ask: Which outcome was entered for the compound "CN1CCN(CCCN2c3ccccc3Sc3ccc(C(F)(F)F)cc32)CC1" in this test?
Result: False

Ask: Which outcome was entered for the compound "COc1ccc2c(c1)c1nn(CCN(C)C)c3ccc4c(=O)n(CCN(C)C)c(=O)n2c4c13" in this test?
Result: True

Ask: Which outcome was entered for the compound O=C1c2ccccc2C(=O)c2c(OCC3CO3)ccc(OCC3CO3)c21 (centres undefined) in this test?
Result: False

Ask: Which outcome was entered for the compound "COC(=O)CCc1c(Cc2ccc[nH]2)[nH]c(C(=O)OCc2ccccc2)c1C" in this test?
Result: False

Ask: Which outcome was entered for the compound "Cc1cccc(N/C(=C(/C(Cl)=C(Cl)Cl)[N+](=O)[O-])n2nnc3ccccc32)c1" in this test?
Result: False

Ask: Which outcome was entered for the compound "CCN(CC)/C(SCc1ccccc1)=C(\C(Cl)=C(Cl)Cl)[N+](=O)[O-]" in this test?
Result: False
